Source of measurements: ChEMBL document CHEMBL5247652

- Test target: UniProt:Q96KQ7
- Sequence (Q96KQ7 whole entry): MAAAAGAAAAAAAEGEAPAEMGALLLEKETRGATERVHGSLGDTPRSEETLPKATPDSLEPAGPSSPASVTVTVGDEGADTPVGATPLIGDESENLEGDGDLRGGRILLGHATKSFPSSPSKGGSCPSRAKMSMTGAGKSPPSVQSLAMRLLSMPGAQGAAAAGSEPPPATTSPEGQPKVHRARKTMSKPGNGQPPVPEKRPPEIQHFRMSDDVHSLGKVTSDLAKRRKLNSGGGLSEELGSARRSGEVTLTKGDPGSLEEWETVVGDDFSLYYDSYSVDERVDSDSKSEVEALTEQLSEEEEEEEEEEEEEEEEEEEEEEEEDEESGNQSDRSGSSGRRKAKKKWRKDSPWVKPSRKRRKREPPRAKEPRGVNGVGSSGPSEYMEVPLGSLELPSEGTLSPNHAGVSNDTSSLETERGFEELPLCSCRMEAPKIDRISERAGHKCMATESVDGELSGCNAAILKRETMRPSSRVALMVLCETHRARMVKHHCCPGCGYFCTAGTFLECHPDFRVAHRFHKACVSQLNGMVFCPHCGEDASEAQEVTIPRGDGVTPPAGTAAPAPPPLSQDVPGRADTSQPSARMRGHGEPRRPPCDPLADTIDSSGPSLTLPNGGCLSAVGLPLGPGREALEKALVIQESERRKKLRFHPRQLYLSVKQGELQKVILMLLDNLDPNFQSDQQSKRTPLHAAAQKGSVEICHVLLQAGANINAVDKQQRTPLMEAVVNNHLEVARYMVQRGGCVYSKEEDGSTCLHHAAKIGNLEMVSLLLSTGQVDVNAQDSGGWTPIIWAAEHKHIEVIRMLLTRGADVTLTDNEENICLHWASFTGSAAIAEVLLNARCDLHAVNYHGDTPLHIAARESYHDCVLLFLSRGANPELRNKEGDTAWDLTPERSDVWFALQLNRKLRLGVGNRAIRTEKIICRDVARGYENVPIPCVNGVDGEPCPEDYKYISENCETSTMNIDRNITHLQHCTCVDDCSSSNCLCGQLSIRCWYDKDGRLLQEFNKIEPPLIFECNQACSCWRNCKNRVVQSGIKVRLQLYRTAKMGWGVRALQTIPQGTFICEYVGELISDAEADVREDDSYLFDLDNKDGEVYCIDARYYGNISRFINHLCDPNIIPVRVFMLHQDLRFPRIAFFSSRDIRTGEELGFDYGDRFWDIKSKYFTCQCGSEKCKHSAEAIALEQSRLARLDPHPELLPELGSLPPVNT
- Measurement notes: Inhibition of N-terminal GST-tagged human recombinant G9a (785 to 1210 residues) expressed in baculovirus infected Sf9 cells incubated for 1 hr by AlphaLISA analysis
Property measured: IC50 (nM)
Quick note: give the figure in nM, leave out the unit.

### Prompt Query for UniProt:Q96KQ7: what IC50 does the record show for `CCCC[C@H](NC(=O)c1[nH]c2c(c1C)C(=O)CC(C)(C)C2)C(=O)Nc1ccccc1` ?
### Response 355

---
### Prompt Query for UniProt:Q96KQ7: what IC50 does the record show for `CCc1c(C(=O)N[C@@H](CCC2CC2)C(=O)Nc2ccc(C#N)cc2)[nH]c2c1C(=O)CC(C)(C)C2` ?
### Response 50
